B1: LINE1-full (parent)
chain: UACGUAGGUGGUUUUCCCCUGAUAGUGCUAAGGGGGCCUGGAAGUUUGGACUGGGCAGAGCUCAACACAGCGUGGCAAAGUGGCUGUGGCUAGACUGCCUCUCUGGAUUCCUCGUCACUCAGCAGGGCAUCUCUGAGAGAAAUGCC

# Variants of: B1
# protocolDetails: self-cleavage, relative activity (ratio to wild type); higher = more cleavage; in vitro, sequencing; the parent is a self-cleaving ribozyme
endpointName: self-cleavage

| change | endpointName | value |
| --- | --- | --- |
| A78G C95U | self-cleavage | 0.1 |
| U119G A138G | self-cleavage | 2.33 |
| U87G A136U | self-cleavage | 0.18 |
| U104G U115A | self-cleavage | 0.87 |
| U47C A142G | self-cleavage | 1.5 |
| G48A G93U | self-cleavage | 0.03 |
| A22G C84U | self-cleavage | 0.24 |
| U20C U85C | self-cleavage | 0.38 |
| G41A G60U | self-cleavage | 0.04 |
| A78G A117U | self-cleavage | 1.6 |
| A2G A78G | self-cleavage | 1.04 |
| U12C U100C | self-cleavage | 1.6 |
| U39C A138U | self-cleavage | 1.29 |
| A22U U29C | self-cleavage | 1.24 |
| U85G U130C | self-cleavage | 0.24 |
| A67G A142C | self-cleavage | 0.93 |
| C38U A64G | self-cleavage | 0.17 |
| A57U C63A | self-cleavage | 0.04 |
| C38A A129G | self-cleavage | 1.46 |
| C3A A31G | self-cleavage | 0.87 |
| A50G C68U | self-cleavage | 0.1 |
| U85A C116A | self-cleavage | 0 |

Cited source: the RNAGym collection of RNA variant scans (doi:10.7554/elife.90254)
